Test system: RAW 264.7 cells
Assay explanation: Quantitative cell-permeability of FITC-labeled aMTD- or rPeptide-fused CRA recombinant proteins (flow cytometry)
Assay type: cell-based
Applied conditions: cell-permeability of aMTD-fused CRA recombinant protein relative to reference CPP (B: MTM12)
Reported Relative Ratio (Fold) B by item:
Readout label: Relative Ratio (Fold) B

- Substance: "905 (AVIAVAPLVVAP; Amino acid Sequence of aMTD905) [compound 905]"
  Observed result: 29.5
- Substance: "185 (AALVLPLIIAAP; Amino acid Sequence of aMTD185) [compound 185]"
  Observed result: 5.7
- Substance: "726 (LAVAIIAPAVAP; Amino acid Sequence of aMTD726) [compound 726]"
  Observed result: 11.0
- Substance: "829 (AALALVAPVIVP; Amino acid Sequence of aMTD829) [compound 829]"
  Observed result: 30.0
- Substance: "900 (ALVAVIAPVVAP; Amino acid Sequence of aMTD900) [compound 900]"
  Observed result: 22.9
- Substance: "811 (AVVLAVPALAVP; Amino acid Sequence of aMTD811) [compound 811]"
  Observed result: 31.1
- Substance: "867 (ALLVVIAPLAAP; Amino acid Sequence of aMTD867) [compound 867]"
  Observed result: 8.8
- Substance: "843 (AVLVLVAPAAAP; Amino acid Sequence of aMTD843) [compound 843]"
  Observed result: 17.7

---

Test system: RAW 264.7 cells
Assay explanation: Quantitative cell-permeability of FITC-labeled aMTD- or rPeptide-fused CRA recombinant proteins (flow cytometry)
Assay type: cell-based
Applied conditions: cell-permeability of aMTD-fused CRA recombinant protein relative to reference CPP (C: MTD85)
Reported Relative Ratio (Fold) C by item:
Readout label: Relative Ratio (Fold) C

- Substance: "321 (IVAVALPALAVP; Amino acid Sequence of aMTD321) [compound 321]"
  Readout label: "Relative Ratio (Fold) C"
  Observed result: 32.9
- Substance: "685 (ALLVAVLPAALP; Amino acid Sequence of aMTD685) [compound 685]"
  Readout label: "Relative Ratio (Fold) C"
  Observed result: 3.4
- Substance: "889 (ILVAAAPIAALP; Amino acid Sequence of aMTD889) [compound 889]"
  Readout label: "Relative Ratio (Fold) C"
  Observed result: 10.3
- Substance: "870 (VLVAAVLPIAAP; Amino acid Sequence of aMTD870) [compound 870]"
  Readout label: "Relative Ratio (Fold) C"
  Observed result: 5.6
- Substance: "242 (AALLVPALVAAP; Amino acid Sequence of aMTD242) [compound 242]"
  Readout label: "Relative Ratio (Fold) C"
  Observed result: 4.9
- Substance: "345 (ALLIVAPVAVAP; Amino acid Sequence of aMTD345) [compound 345]"
  Readout label: "Relative Ratio (Fold) C"
  Observed result: 3.0
- Substance: "964 (ALLVIAPAIAVP; Amino acid Sequence of aMTD864) [compound 964]"
  Readout label: "Relative Ratio (Fold) C"
  Observed result: 2.8
- Substance: "521 (LAALIVVPAVAP; Amino acid Sequence of aMTD521) [compound 521]"
  Readout label: "Relative Ratio (Fold) C"
  Observed result: 3.2
- Substance: "625 (ILAAAAAPLIVP; Amino acid Sequence of aMTD625) [compound 625]"
  Readout label: "Relative Ratio (Fold) C"
  Observed result: 7.0
- Substance: "325 (IVAVALPAVALP; Amino acid Sequence of aMTD325) [compound 325]"
  Readout label: "Relative Ratio (Fold) C"
  Observed result: 4.0
- Substance: "851 (VLAVVLPAVALP; Amino acid Sequence of aMTD851) [compound 851]"
  Readout label: "Relative Ratio (Fold) C"
  Observed result: 32.7
- Substance: "601 (AAILIAVPIAAP; Amino acid Sequence of aMTD601) [compound 601]"
  Readout label: "Relative Ratio (Fold) C"
  Observed result: 9.0
- Substance: "725 (IAVLAVAPAVLP; Amino acid Sequence of aMTD725) [compound 725]"
  Readout label: "Relative Ratio (Fold) C"
  Observed result: 3.8
- Substance: "788 (AIAVAIAPVALP; Amino acid Sequence of aMTD788) [compound 788]"
  Readout label: "Relative Ratio (Fold) C"
  Observed result: 3.3
- Substance: "2 (AAAVPLLAVVVP; Amino acid Sequence of aMTD2) [compound 2]"
  Readout label: "Relative Ratio (Fold) C"
  Observed result: 13.8
- Substance: "185 (AALVLPLIIAAP; Amino acid Sequence of aMTD185) [compound 185]"
  Readout label: "Relative Ratio (Fold) C"
  Observed result: 2.9
- Substance: "385 (IVAIAVPALVAP; Amino acid Sequence of aMTD385) [compound 385]"
  Readout label: "Relative Ratio (Fold) C"
  Observed result: 13.1
- Substance: "223 (AILAVPIAVVAP; Amino acid Sequence of aMTD223) [compound 223]"
  Readout label: "Relative Ratio (Fold) C"
  Observed result: 11.2
- Substance: "124 (IAVALPALIAAP; Amino acid Sequence of aMTD124) [compound 124]"
  Readout label: "Relative Ratio (Fold) C"
  Observed result: 14.7
- Substance: "706 (IVAVALLPAVAP; Amino acid Sequence of aMTD706) [compound 706]"
  Readout label: "Relative Ratio (Fold) C"
  Observed result: 4.1
- Substance: "541 (LLALIIAPAAAP; Amino acid Sequence of aMTD541) [compound 541]"
  Readout label: "Relative Ratio (Fold) C"
  Observed result: 5.0
- Substance: "524 (AVALIVVPALAP; Amino acid Sequence of aMTD524) [compound 524]"
  Readout label: "Relative Ratio (Fold) C"
  Observed result: 6.2
- Substance: "786 (LVAIAPLAVLAP; Amino acid Sequence of aMTD786) [compound 786]"
  Readout label: "Relative Ratio (Fold) C"
  Observed result: 7.2
- Substance: "324 (IVAVALPAALVP; Amino acid Sequence of aMTD324) [compound 324]"
  Readout label: "Relative Ratio (Fold) C"
  Observed result: 3.5
- Substance: "831 (IIVAVAPAAIVP; Amino acid Sequence of aMTD831) [compound 831]"
  Readout label: "Relative Ratio (Fold) C"
  Observed result: 15.7
- Substance: "910 (VAALLPAVVVAP; Amino acid Sequence of aMTD910) [compound 910]"
  Readout label: "Relative Ratio (Fold) C"
  Observed result: 50.2
- Substance: "463 (AVAILVPLLAAP; Amino acid Sequence of aMTD463) [compound 463]"
  Readout label: "Relative Ratio (Fold) C"
  Observed result: 5.9
- Substance: "665 (LAIVLAAPVAVP; Amino acid Sequence of aMTD665) [compound 665]"
  Readout label: "Relative Ratio (Fold) C"
  Observed result: 5.0
- Substance: "911 (VALALPAVVVAP; Amino acid Sequence of aMTD911) [compound 911]"
  Readout label: "Relative Ratio (Fold) C"
  Observed result: 28.7
- Substance: "899 (AVVIALPAVVAP; Amino acid Sequence of aMTD899) [compound 899]"
  Readout label: "Relative Ratio (Fold) C"
  Observed result: 55.5
- Substance: "827 (IAAVLAAPALVP; Amino acid Sequence of aMTD827) [compound 827]"
  Readout label: "Relative Ratio (Fold) C"
  Observed result: 14.6
- Substance: "465 (IAAVIVPVAALP; Amino acid Sequence of aMTD465) [compound 465]"
  Readout label: "Relative Ratio (Fold) C"
  Observed result: 2.5
- Substance: "602 (VIVALAAPVLAP; Amino acid Sequence of aMTD602) [compound 602]"
  Readout label: "Relative Ratio (Fold) C"
  Observed result: 3.4
- Substance: "666 (AAIAIIAPAIVP; Amino acid Sequence of aMTD666) [compound 666]"
  Readout label: "Relative Ratio (Fold) C"
  Observed result: 5.0
